Reference source: patent US10562857B2

molecular target: Cav3.2 channel (Homo sapiens); construct: expressed in transfected cells; host or cells: HEK-293, tetracycline inducible expression system (Invitrogen); assay: Whole-cell patch clamp of T-type Cav3.2 channel expressed in HEK293 cells; format: cell-based; conditions: Table 2; read-out: Cav3.2 IC50
Sequence (O95180 whole entry): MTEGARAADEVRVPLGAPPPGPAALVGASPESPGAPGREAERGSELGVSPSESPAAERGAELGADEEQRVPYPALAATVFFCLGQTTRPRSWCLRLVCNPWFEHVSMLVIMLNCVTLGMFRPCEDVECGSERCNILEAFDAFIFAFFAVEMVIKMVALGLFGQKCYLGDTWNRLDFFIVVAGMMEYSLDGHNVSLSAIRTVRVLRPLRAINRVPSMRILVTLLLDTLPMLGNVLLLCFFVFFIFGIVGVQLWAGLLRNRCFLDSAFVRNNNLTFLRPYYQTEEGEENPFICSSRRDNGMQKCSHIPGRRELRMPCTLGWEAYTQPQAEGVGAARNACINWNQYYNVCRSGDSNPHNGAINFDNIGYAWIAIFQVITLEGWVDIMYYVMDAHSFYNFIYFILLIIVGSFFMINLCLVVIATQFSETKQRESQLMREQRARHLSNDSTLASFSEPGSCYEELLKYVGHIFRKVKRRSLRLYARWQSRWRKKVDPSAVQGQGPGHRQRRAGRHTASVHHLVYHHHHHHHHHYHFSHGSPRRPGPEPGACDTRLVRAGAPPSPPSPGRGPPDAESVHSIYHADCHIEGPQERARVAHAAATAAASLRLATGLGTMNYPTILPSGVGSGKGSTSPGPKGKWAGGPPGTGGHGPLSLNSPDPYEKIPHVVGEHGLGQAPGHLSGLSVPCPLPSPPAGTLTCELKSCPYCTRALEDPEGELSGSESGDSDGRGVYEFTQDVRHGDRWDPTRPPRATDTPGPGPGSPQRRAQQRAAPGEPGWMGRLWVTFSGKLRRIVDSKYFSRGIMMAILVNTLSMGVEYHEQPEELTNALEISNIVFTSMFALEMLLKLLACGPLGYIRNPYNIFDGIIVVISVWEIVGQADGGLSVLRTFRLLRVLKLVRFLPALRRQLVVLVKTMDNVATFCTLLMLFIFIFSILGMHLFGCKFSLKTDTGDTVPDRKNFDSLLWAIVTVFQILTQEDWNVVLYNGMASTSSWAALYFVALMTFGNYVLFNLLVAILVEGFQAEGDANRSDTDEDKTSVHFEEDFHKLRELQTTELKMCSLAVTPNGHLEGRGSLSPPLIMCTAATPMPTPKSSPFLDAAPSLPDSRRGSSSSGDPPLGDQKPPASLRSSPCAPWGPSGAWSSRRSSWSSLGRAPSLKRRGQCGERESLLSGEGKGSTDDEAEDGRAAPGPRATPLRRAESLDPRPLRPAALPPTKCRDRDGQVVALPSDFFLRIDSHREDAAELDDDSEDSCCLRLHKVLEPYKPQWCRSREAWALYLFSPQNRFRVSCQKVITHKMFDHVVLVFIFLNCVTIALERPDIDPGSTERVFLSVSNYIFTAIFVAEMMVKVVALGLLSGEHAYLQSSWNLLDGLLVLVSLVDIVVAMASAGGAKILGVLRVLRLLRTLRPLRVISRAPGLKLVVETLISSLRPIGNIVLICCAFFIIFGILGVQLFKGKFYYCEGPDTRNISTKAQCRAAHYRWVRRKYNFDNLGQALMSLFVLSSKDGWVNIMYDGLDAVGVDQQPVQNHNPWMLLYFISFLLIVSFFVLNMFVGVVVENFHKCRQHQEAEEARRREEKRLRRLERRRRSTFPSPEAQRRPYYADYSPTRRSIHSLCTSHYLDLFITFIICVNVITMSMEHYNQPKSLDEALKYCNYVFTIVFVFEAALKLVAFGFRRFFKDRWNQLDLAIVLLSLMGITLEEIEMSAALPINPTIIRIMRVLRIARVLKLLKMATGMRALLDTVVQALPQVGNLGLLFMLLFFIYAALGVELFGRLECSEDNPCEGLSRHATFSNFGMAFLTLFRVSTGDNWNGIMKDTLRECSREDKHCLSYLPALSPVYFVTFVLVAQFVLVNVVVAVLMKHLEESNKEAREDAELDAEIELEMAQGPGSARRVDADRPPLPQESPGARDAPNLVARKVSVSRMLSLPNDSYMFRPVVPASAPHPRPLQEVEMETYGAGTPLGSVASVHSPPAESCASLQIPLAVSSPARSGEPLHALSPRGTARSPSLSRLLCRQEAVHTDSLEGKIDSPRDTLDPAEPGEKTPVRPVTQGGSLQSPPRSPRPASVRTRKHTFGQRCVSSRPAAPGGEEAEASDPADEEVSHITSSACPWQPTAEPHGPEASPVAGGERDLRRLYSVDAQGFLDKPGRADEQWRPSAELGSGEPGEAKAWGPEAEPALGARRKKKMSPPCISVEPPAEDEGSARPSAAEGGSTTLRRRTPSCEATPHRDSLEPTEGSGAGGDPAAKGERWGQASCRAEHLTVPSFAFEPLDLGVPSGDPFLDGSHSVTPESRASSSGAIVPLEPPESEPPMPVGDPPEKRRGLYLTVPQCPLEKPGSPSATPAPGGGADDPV
Assign IC50 to each entry below.
One number for each entry, in nM.

Examples from the recorded data:
{"columns": ["Compound", "Units Label", "IC50"],
 "data": [
  ["CC(C)(C)NC(=O)CN1CCC(CNC(=O)c2cc(F)cc(Cl)c2)CC1 [Z944, reference compound]", "nM", 190],
  ["CC(C)(C)CCN1C[C@@H]2[C@@H](CNC(=O)c3cc(Cl)cc(Cl)c3)[C@@H]2C1 [ML218, reference compound]", "nM", 310],
  ["CC(C)(C)NC(=O)CN1CCC2(CC1)CC2NC(=O)c1cc(F)cc(Cl)c1 (centres unmarked) [Example 17]", "nM", 240],
  ["CC(C)(C)NC(=O)CN1CCC2(CC1)CC2NC(=O)c1cc(F)cc(Cl)c1 (single isomer, unassigned) [Example 128]", "nM", 90]
]}

Now for the compound whose IC50 we want.
Query: If you can, please state the reported IC50 value of CC(C)(C)CCN1CCC2(CC1)C[C@H]2NC(=O)c1cc(C(F)(F)F)cc(C(F)(F)F)c1 (single isomer, unassigned) [Example 146] .
Result: 70
